target: hD2S (cloned human dopamine D2S receptor) (Homo sapiens, UniProt P14416); construct: expressed in transfected cells; host or cells: CHO-K1; assay: Determination of Ki at D2S receptor (radioligand binding, [3H]-Raclopride); conditions: Ki hD2S, CHO-K1 recombinant cells; [3H]-Raclopride 4 nM
Sequence (P14416 1-414 isoform P14416-2): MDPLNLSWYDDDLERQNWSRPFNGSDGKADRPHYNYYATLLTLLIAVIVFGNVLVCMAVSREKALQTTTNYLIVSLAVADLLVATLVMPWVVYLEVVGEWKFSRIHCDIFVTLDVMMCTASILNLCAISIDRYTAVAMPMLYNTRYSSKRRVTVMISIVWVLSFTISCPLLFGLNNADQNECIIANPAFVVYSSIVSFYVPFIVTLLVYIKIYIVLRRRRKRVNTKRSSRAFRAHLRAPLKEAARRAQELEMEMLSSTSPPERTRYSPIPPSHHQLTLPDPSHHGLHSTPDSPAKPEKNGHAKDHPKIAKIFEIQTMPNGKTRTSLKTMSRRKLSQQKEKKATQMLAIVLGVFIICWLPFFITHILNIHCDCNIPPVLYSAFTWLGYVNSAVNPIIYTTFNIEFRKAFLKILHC
pKi: −log10 of the molar value. Structures can show the parent of a compound that is named as a salt.
outcome-measure: pKi

INSERT INTO assay_data (molecule, val) VALUES
  ('O=C1C[C@@H]2C[C@H]3C[C@H]3N2C(=O)N1CCCCN1CCN(c2nsc3ccccc23)CC1 [Example 11, oxalate]', 9.21);

====

experiment: Rodent brain penetration study; format: in vivo; conditions: rat, brain/plasma, po, fed male Wistar rats, 3 mg/kg p.o., mean ± S.D, n = 3, read-out: Rat Brain Penetration (Cbrain/Cplasma) at 3 mg/kg, p.o. @ 1 h
Structures can show the parent of a compound that is named as a salt.
Label scheme for Kp at 1 h: lower than 1 is Not fulfilled, 1 and above is Fulfilled.

INSERT INTO results (molecule, classification) VALUES
  ('O=C1C[C@@H]2CCCN2C(=O)N1CCCCN1CCN(c2nsc3ccccc23)CC1 [Example 2, oxalate]', 'Not fulfilled'),
  ('O=C1C[C@H]2CCCN2C(=O)N1C[C@H]1CCCC[C@H]1CN1CCN(c2nsc3ccccc23)CC1 [Example 27, oxalate]', 'Fulfilled'),
  ('O=C1C[C@@H]2CCCN2C(=O)N1CCCCN1CCN(c2cccc3sccc23)CC1 [Example 4, oxalate]', 'Fulfilled'),
  ('O=C1C[C@@H]2CCCN2C(=O)N1CCCCN1CCC(c2noc3cc(F)ccc23)CC1 [Example 5]', 'Fulfilled'),
  ('O=C1C[C@@H]2C[C@H](F)CN2C(=O)N1CCCCN1CCN(c2nsc3ccccc23)CC1 [Example 9, oxalate]', 'Not fulfilled'),
  ('O=C1C[C@H]2CCCN2C(=O)N1C[C@H]1CCCC[C@H]1CN1CCC(c2noc3cc(F)ccc23)CC1 [Example 29, oxalate]', 'Fulfilled');

====

molecular target: cloned human 5-HT2A receptor (Homo sapiens, UniProt P28223); construct: expressed in transfected cells; host or cells: CHO-K1; assay: Determination of Ki at 5-HT2A receptor (radioligand binding, [3H]-Ketanserine); conditions: CHO-K1 recombinant cells; [3H]-Ketanserine 1.25 nM; read-out: Ki h5-HT2A
Sequence (P28223 whole entry): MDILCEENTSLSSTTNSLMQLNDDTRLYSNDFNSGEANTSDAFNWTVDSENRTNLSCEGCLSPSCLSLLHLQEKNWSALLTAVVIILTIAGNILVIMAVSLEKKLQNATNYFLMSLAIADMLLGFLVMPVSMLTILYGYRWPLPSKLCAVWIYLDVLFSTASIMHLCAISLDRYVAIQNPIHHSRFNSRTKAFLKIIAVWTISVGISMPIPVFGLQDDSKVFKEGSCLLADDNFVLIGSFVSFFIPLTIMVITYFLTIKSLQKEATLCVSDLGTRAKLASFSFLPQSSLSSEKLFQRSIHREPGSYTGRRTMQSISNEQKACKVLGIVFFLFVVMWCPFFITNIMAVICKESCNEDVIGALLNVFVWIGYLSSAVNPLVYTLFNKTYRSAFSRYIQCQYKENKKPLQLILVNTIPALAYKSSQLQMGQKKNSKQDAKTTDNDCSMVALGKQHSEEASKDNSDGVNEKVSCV
Counter-ions that a name gives are not always drawn.
outcome-measure: Ki (nM)

INSERT INTO results (compound, endpoint_unit, val) VALUES
  ('O=C(OCc1ccccc1)N1CCN2C(=O)N(CCCCN3CCN(c4nsc5ccccc45)CC3)C(=O)C[C@@H]2C1 [Example 20, fumarate]', 'nM', 1.1),
  ('COC(=O)N1CCN2C(=O)N(CCCCN3CCN(c4nsc5ccccc45)CC3)C(=O)C[C@@H]2C1', 'nM', 0.8),
  ('O=C1C[C@@H]2CCCN2C(=O)N1CCCCN1CCN(c2nsc3ccccc23)CC1 [Example 2, oxalate]', 'nM', 0.6),
  ('O=C1C[C@@H]2CCCCN2C(=O)N1CCCCN1CCC(c2noc3cc(F)ccc23)CC1', 'nM', 2.5);

====

assay: Rodent brain penetration study; format: in vivo; settings: rat, in vivo, po, fed male Wistar rats, 3 mg/kg p.o., mean ± S.D, n = 3, read-out: Rat Brain Penetration (Cbrain/Cplasma) at 3 mg/kg, p.o. @ 1 h
Where a name gives a salt, the structure may show the parent alone.
outcome-measure: Kp at 1 h

INSERT INTO measurements (compound, val) VALUES
  ('O=C1C[C@@H]2C[C@H]3C[C@H]3N2C(=O)N1CCCCN1CCN(c2nsc3ccccc23)CC1 [Example 11, oxalate]', 0.09);
